Biological target: human carbonic anhydrase IX (hCAIX-Fc) (Homo sapiens, UniProt Q16790)
Construct: purchased SinoBliological (Sino Biological) 10107-H02H
Test: Surface plasmon resonance assay with hCAIX-Fc
Format: binding
Settings: SPR, hCAIX-Fc captured, 25° C.; read-out: pKD category (activity) (converted)
Starred links: 1 amine or outer side, 2 acyl side, 3 side chain; linkers in the order of their positions; H or OH if unused. Positions of bridges follow the written chain, without caps; N, C: chain ends. Non-standard residues stand in square brackets, D forms with d. Residues, ends and D or L forms follow the SMILES beside them. *: point of attachment. DOTA = O=C(O)CN1CCN(CC(=O)O)CCN(CC(=O)*)CCN(CC(=O)O)CC1; mXylylene = c1cc(C[*:1])cc(C[*:2])c1; Dap = NC[C@H](N)C(=O)O
endpoint-name: Kd

stdin: # lookup: Kd of CC(C)C[C@@H]1NC(=O)[C@H](Cc2c[nH]c3ccccc23)NC(=O)[C@H](CC(=O)O)NC(=O)[C@H]2CCCN2C(=O)[C@H](CCC(=O)O)NC(=O)[C@@H]2CSCc3cccc(c3)CSC[C@@H](C(N)=O)NC(=O)[C@H](CNC(=O)C[C@H](NC(=O)[C@H](CO)NC(=O)CN3CCN(CC(=O)O)CCN(CC(=O)O)CCN(CC(=O)O)CC3)C(=O)N2)NC(=O)[C@H](Cc2c[nH]c3ccccc23)NC(=O)[C@H]([C@@H](C)O)NC1=O [3BP-4257] ({DOTA}-SDCE[dP]DWLTW[Dap]C-NH2; lactam 2-11; linker 3-12 via mXylylene)
stdout: < 10 nM
